test: SK-BR-3 cell growth inhibitors, pilot screen, 24 h, human (AID 572); details: SK-BR-3 viability, CellTiter-Glo luminescence, at 10 µM, hits give low values;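 note: compound exposure lasted between 18 and 24 h rather than exactly 24 h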
Under this convention, True denotes viability strictly below 90% and False denotes viability at or above 90%.

[
  {
    "molecule": "CCC[C@@H]1C[C@@H](C(=O)N[C@H]([C@@H](C)O)[C@H]2O[C@H](SC)[C@H](O)[C@@H](O)C2O)N(C)C1 (stereo partly drawn)",
    "class": "False"
  }
]

stdin: Bench note: check whether "CCc1cc2c(=O)c(-c3nc4ccccc4[nH]3)coc2cc1OC(=O)N1CCOCC1" shows viability below 90%
stdout: False

stdin: Bench note: check whether "CCCCCC(=O)N1CC2(C)CN(C(=O)CCCCC)CC(C)(C1)C2=O" shows viability below 90%
stdout: True

stdin: Bench note: check whether "CCCc1ccccc1OCCNC(C)=O" shows viability below 90%
stdout: False

stdin: Bench note: check whether "Cc1ccc(N(Cc2ccco2)C(=O)c2cccc(S(=O)(=O)N(C)C)c2)cc1" shows viability below 90%
stdout: False

stdin: Bench note: check whether "N#CCC(=O)N1CCn2c1nc1ccccc12" shows viability below 90%
stdout: False

stdin: Bench note: check whether O=C1OC(N2CCN(c3ccccn3)CC2)c2ccccc21 (stereo not drawn) shows viability below 90%
stdout: False

stdin: Bench note: check whether CN1CC=C2C(C#N)=C(N)C(C#N)(C#N)C(Cc3ccccc3)C2C1 (stereo not drawn) shows viability below 90%
stdout: True

stdin: Bench note: check whether "CC1=C(/C=C/C(C)=C/C=C/C(C)=C/C(=O)O)C(C)(C)CCC1" shows viability below 90%
stdout: True

stdin: Bench note: check whether "O=S(=O)(c1ccc(N2CCN(c3ccc(F)cc3)CC2)cc1)N1CCCC1" shows viability below 90%
stdout: False

stdin: Bench note: check whether "CCOC(=O)c1sc(NC(=O)CSc2nnc(-c3ccco3)n2CC)c(C(=O)OCC)c1C" shows viability below 90%
stdout: False

stdin: Bench note: check whether "O=C(CCCCn1c(=O)c2ccccc2n(Cc2ccc(Cl)cc2)c1=O)NCc1ccco1" shows viability below 90%
stdout: False

stdin: Bench note: check whether CNC(=O)OC(C)CNS(=O)(=O)c1ccc(C)cc1 (stereo not drawn) shows viability below 90%
stdout: True

stdin: Bench note: check whether "CCOC(=O)CC(=O)CSc1nc(-c2cccnc2)ccc1C#N" shows viability below 90%
stdout: False

stdin: Bench note: check whether "Cc1cccc(NC(=O)c2cc(NC(=O)c3ccco3)ccc2N2CCCCC2)c1" shows viability below 90%
stdout: True

stdin: Bench note: check whether "Cc1cncn1CCc1nc2c3ccccc3nc(=S)n2[nH]1" shows viability below 90%
stdout: False

stdin: Bench note: check whether CN1CC=C2C(C#N)=C(N)C(C#N)(C#N)[C@H](c3cccc(Cl)c3)C2C1 (stereo partly drawn) shows viability below 90%
stdout: False

The measurements presented in this section are drawn from PubChem BioAssay.
